# measured-target: Androgen receptor (Homo sapiens) (UniProt P10275)
# Sequence (whole entry): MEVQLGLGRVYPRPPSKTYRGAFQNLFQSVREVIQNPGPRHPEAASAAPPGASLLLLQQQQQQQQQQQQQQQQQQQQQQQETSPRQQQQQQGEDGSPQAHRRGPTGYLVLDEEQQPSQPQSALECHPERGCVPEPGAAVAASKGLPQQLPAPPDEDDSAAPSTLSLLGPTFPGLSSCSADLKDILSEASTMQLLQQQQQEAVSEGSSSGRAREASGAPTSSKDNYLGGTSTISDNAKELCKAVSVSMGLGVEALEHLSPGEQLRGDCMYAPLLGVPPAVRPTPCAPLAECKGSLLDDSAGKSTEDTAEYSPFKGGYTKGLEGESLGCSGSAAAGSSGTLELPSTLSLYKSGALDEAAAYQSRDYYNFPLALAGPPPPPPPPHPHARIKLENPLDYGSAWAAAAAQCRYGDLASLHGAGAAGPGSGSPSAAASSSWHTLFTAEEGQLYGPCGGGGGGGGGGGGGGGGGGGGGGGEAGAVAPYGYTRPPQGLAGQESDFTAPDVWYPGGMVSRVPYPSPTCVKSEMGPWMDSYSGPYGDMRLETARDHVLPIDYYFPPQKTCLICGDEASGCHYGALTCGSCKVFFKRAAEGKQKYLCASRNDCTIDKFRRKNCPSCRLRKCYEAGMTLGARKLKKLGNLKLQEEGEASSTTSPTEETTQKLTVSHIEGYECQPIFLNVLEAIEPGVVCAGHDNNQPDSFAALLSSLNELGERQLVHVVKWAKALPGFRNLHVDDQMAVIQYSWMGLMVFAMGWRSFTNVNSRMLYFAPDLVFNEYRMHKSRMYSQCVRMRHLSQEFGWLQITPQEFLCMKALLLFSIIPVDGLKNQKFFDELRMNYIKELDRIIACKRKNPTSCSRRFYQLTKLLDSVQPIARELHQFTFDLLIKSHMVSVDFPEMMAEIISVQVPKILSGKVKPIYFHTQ
# assay-info: Antagonist activity at androgen receptor in human LNCAP cells transfected with p6.1-luciferase assessed as inhibition of R1881-induced transcriptional activity at 7 uM pretreated 1 hr prior to R1881 addition measured after 48 hrs by luciferase reporter gene assay
# Assay type: functional, cell-based
Activity calls are given as the source filed them. The rule behind the calls is not given here.
observed-property: inhibition

* CCCCCCCCCCCCC(=O)/C=C/CCCOC[C@@H](O)CO | 50%
* CCCCCCCCCCCCC(=O)/C=C/CCCOC[C@H](O)CO | Active
* CCCCCCCCCCCCC(=O)/C=C/CCCOC[C@H]1CO1 | Active
